Every entry's value here was drawn from paper PMC12102759.

- System: G3BP1 NFT2
- Assay type: binding, human
- Experimental Parameters: library DMS-CoV; bait G3BP1 NFT2; prey N; peptide RNAPRITFGGPSDSTG; listed as aa = residue placed at this position; column sums to 1
Assay Endpoint: DMS PSSM value, N (position 2)
Answers are plain numbers.

[
  {
    "Sequence": "RNAPRITFGGPSDSTG N2W (RWAPRITFGGPSDSTG)",
    "DMS PSSM value, N (position 2)": 0
  },
  {
    "Sequence": "RNAPRITFGGPSDSTG N2Q (RQAPRITFGGPSDSTG)",
    "DMS PSSM value, N (position 2)": 0
  },
  {
    "Sequence": "RNAPRITFGGPSDSTG N2F (RFAPRITFGGPSDSTG)",
    "DMS PSSM value, N (position 2)": 0
  },
  {
    "Sequence": "RNAPRITFGGPSDSTG N2D (RDAPRITFGGPSDSTG)",
    "DMS PSSM value, N (position 2)": 0.4666
  }
]

Consider the additional sequence presented here.
Q: Entry under review: RNAPRITFGGPSDSTG N2S (RSAPRITFGGPSDSTG) . Reported DMS PSSM value, N (position 2)?
Ans: 0.05861

---

Answer each item with its documented DMS-derived PSSM value, position S15.
- System: PABPC1 PABC
- Type: binding, human
- Experimental Parameters: DMS-BM library, bait PABPC1 PABC, prey ATXN2, peptide TLNPNAKEFNPRSFSQ; S = wild type, row aa = residue at this position

[
  {
    "Sequence": "TLNPNAKEFNPRSFSQ S15H (TLNPNAKEFNPRSFHQ)",
    "DMS-derived PSSM value, position S15": 0.01215
  }
]

# batch size: 5; output DMS-derived PSSM value, position S15 per entry
1. TLNPNAKEFNPRSFSQ S15Q (TLNPNAKEFNPRSFQQ)
2. TLNPNAKEFNPRSFSQ S15F (TLNPNAKEFNPRSFFQ)
3. TLNPNAKEFNPRSFSQ S15I (TLNPNAKEFNPRSFIQ)
4. TLNPNAKEFNPRSFSQ S15N (TLNPNAKEFNPRSFNQ)
5. TLNPNAKEFNPRSFSQ S15P (TLNPNAKEFNPRSFPQ)

Ans:
1: 0.01622; 2: 0.01014; 3: 0.0111; 4: 0.007151; 5: 0.326

---

- System: PABPC1 PABC
- Format: binding, human
- Experimental Parameters: DMS-BM library, bait PABPC1 PABC, prey ATXN2, peptide TLNPNAKEFNPRSFSQ; T = wild type, row aa = residue at this position
Answer each item with its documented DMS-derived PSSM value, position T1.

Sample answers from the record:
[
  {
    "Sequence": "TLNPNAKEFNPRSFSQ T1G (GLNPNAKEFNPRSFSQ)",
    "DMS-derived PSSM value, position T1": 0.1015
  },
  {
    "Sequence": "TLNPNAKEFNPRSFSQ T1I (ILNPNAKEFNPRSFSQ)",
    "DMS-derived PSSM value, position T1": 0.00436
  },
  {
    "Sequence": "TLNPNAKEFNPRSFSQ T1H (HLNPNAKEFNPRSFSQ)",
    "DMS-derived PSSM value, position T1": 0.01756
  }
]

Consider the additional sequence presented here.
Q: API: value(readout= DMS-derived PSSM value, position T1, system= PABPC1 PABC, query= TLNPNAKEFNPRSFSQ T1K (KLNPNAKEFNPRSFSQ) )
Ans: 0.03828
